Molecular target: T1, CCL5_HUMAN (Homo sapiens, UniProt P13501)
T1 sequence (P13501 24-91): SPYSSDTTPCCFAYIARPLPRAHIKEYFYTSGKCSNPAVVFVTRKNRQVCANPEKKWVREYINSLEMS
Assay: Biolayer interferometry (BLI) binding
Kd listing for selected molecules.
observation type: Kd (nM)

{"molecule": "P991_AMBCA: tick CKBP, Amblyomma cajennense (protein, Amblyomma cajennense) ENGEGTTQPDYDNSTDYYNYEDFKCTCPAPHLNNTNGTVMKPIGCYYTCNVTRCTAPDTYPCYNLTEHQAKNLTTSPTTLCAVGNCDHGICVPNGTKELCFKAPNLEE", "observation type": "Kd", "recorded result": 1.47}
{"molecule": "P1243_AMBAM: tick CKBP, Amblyomma americanum; AAM-02 stated identical (protein, listed as Amblyomma americanum) RNHTEDNSTEYYDYEEARCACPARHLNNTNGTVLKLLGCHYFCNGTLCTAPDGYPCYNLTAQQVRTLTTYPNTSCAVGVCMKGTCVKNGTMEQCFKTP", "observation type": "Kd", "recorded result": 1.74}
{"molecule": "P974_AMBCA: tick CKBP, Amblyomma cajennense; ACA-01 stated identical (protein, Amblyomma cajennense, tick CKBP, Amblyomma cajennense; ACA-01 stated identical) ENTQQEEQDYDYGTDTCPFPVLANKTNKAKFVGCHQKCNGGDQKLTDGTACYVVERKVWDRMTPMLWYECPLGECKNGVCEDLRKKEDCRKGNGEEK", "observation type": "Kd", "recorded result": 160}
{"molecule": "P985_AMBPA: tick CKBP, Amblyomma parvum (protein, listed as Amblyomma parvum) DEESEELGASTDVDYEELDANCTCPAPALTSTRNNKHYPLGCIYNCSSYNCTIPDGTPCYVLTLGEVKEHLQIGSTVPNCTCGLCRNGTCVSNGTVEECFAVEEIEET", "observation type": "Kd", "recorded result": 3.5}
